experiment: Estimated blood concentration after i.v. dose; format: in vivo; settings: C57BL/6J, whole blood, intravenous; 3 mg/kg, assuming a blood volume of 2 mL for a 25 g mouse
Measurement Type: Cmax

[Q] Quick check: Cmax of Ac-RHYPYWR-OH [Peptide P32, Ac-RHYPYWR-OH] ?
[A] ~50 µM

// data source = patent US10280197B2
